Test system: Pseudomonas aeruginosa
protocol details: Antibacterial activity against Pseudomonas aeruginosa ATCC 15442 at 10 uM by disc diffusion method
Assay type: functional
measurement conditions: read-out: DIZ
measured metric: zone of inhibition at 10 µM (mm)

* CCC(C)SN1CCN(c2cc3c(cc2F)c(=O)c(C(=O)O)cn3C2CC2)CC1 (stereo not drawn) | 27
* O=C(O)c1cn(C2CC2)c2cc(N3CCN(Sc4ccccc4[N+](=O)[O-])CC3)c(F)cc2c1=O | 9
* O=C(O)c1cn(C2CC2)c2cc(N3CCN(Sc4ccccc4)CC3)c(F)cc2c1=O | 27
* O=C(O)c1cn(C2CC2)c2cc(N3CCN(Sc4ccc(Cl)cc4)CC3)c(F)cc2c1=O | 26
* CC(C)C(C)SN1CCN(c2cc3c(cc2F)c(=O)c(C(=O)O)cn3C2CC2)CC1 (stereo not drawn) | 31
* CCCCCCSN1CCN(c2cc3c(cc2F)c(=O)c(C(=O)O)cn3C2CC2)CC1 | 23
* CCSN1CCN(c2cc3c(cc2F)c(=O)c(C(=O)O)cn3C2CC2)CC1 | 32
* O=C(O)c1cn(C2CC2)c2cc(N3CCNCC3)c(F)cc2c1=O [CIPROFLOXACIN] | 29
